Target: T1, Peptide 8: Biotin-AEAAAKEAAAKEAAAKEAAAKAAA-Tyr-acid (N-terminal biotin; C-terminal acid; no PC)
T1 construct: control peptide without PC
T1 peptide: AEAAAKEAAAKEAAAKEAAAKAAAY
Experiment: scFv ELISA
reported_endpoint: OD450 (OD450)
Give a bare numeral; the unit OD450 is implied.

# binder, readout_unit, OD450
records = [
    ("PcOxP_DB01_G04 (scFv, V domains shown, scFv in periplasmic extract) VH: EVQLLESGGGLVQPGGSLRLSCAASGFTFSDGYMEWVRQAPGKGLEWVAASRNKANDYTTEYADSVKGRFTISRDNSKNTLYLQMNSLRAEDTAVYYCARDYYGSSYWYFDVWGQGTLVTVSS VL: DIVMTQSPDSLAVSLGERATINCTASESLYSSKHKVHYLAWYQQKPGQPPKLLIYGASNRYSGVPDRFSGSGSGTDFTLTISSLQAEDVAVYYCAQFYSYPLTFGGGTKVEIK", "OD450", 0.07),
    ("PcOxP_DB04_H10 (scFv, V domains shown, scFv in periplasmic extract) VH: EVQLLESGGGLVQPGGSLRLSCAASGATFSDFYVEWVRQAPGKGLEWVAASRNKANDYTTEYADSVKGRFTISRDNSKNTLYLQMNSLRAEDTAVYYCARDYYGSSYWYFDVWGQGTLVTVSS VL: DIQMTQSPSSLSASVGDRVTITCTASESLYSSKHKVHYLAWYQQKPGKAPKLLIYGPSNRYIGVPSRFSGSGSGTDFTLTISSLQPEDFATYYCAQFYSYPLTFGGGTKVEIK", "OD450", 0.07),
    ("PcOxP_DB02_B07 (scFv, V domains shown, scFv in periplasmic extract) VH: EVQLLESGGGLVQPGGSLRLSCAASGFTFSDQYMEWVRQAPGKGLEWVAASRNNANDYTTEYADSVKGRFTISRDNSKNTLYLQMNSLRAEDTAVYYCARDYYGSSYWYFDVWGQGTLVTVSS VL: DIVMTQSPDSLAVSLGERATINCTASESLYSSKHKVHYLAWYQQKPGQPPKLLIYGASNRQIGVPDRFSGSGSGTDFTLTISSLQAEDVAVYYCAQFYHYPLTFGGGTKVEIK", "OD450", 0.04),
]

OD450 reading for PcOxP_DB01_G05 (scFv, V domains shown, scFv in periplasmic extract) VH: EVQLLESGGGLVQPGGSLRLSCAASGFTFSSYYMEWVRQAPGKGLEWVAASRNKANEYTTEYADSVKGRFTISRDNSKNTLYLQMNSLRAEDTAVYYCARDYYGSSYWYFDVWGQGTLVTVSS VL: DIVMTQSPDSLAVSLGERATINCTASESLYSSKHKVHYLAWYQQKPGQPPKLLIYGASNRYIGVPDRFSGSGSGTDFTLTISSLQAEDVAVYYCANFYSYPLTFGGGTKVEIK : 0.05

OD450 reading for PcOxP_DB01_C09 (scFv, V domains shown, scFv in periplasmic extract) VH: EVQLLESGGGLVQPGGSLRLSCAASGFTFSDFYMEWVRQAPGKGLEWVAASRNKANDYTTEYADSVKGRFTISRDNSKNTLYLQMNSLRAEDTAVYYCARDYYGSSYWYFDVWGQGTLVTVSS VL: DIVMTQSPDSLAVSLGERATINCTASQSVYSSKNKVHYLAWYQQKPGQPPKLLIYGASNRYIGVPDRFSGSGSGTDFTLTISSLQAEDVAVYYCAQFYSYPLTFGGGTKVEIK : 0.05
